Recorded nuclear beta-catenin stimulation, one value per entry.
assay: Wnt pathway potentiators raising nuclear beta-catenin – imaging, WNT3A-conditioned medium, mouse C2C12, NPC library, primary screen (AID 1117326); conditions: at 10 µM, hits give high values; further: reference of the scale not given here
All answers are understood in %, so give the number only.

query: Entry under review: COc1ccc2[nH]cc(CCNC(C)=O)c2c1 . Reported nuclear beta-catenin stimulation?
result: 0.2

query: Entry under review: CN1CCC(=C2c3ccccc3CCc3sccc32)CC1 . Reported nuclear beta-catenin stimulation?
result: -0.8

query: Entry under review: CC1CC(OC(=O)C(O)c2ccccc2)CC(C)(C)N1C (configuration not stated) . Reported nuclear beta-catenin stimulation?
result: -1.4

query: Entry under review: CN(CCOc1ccc(NS(C)(=O)=O)cc1)CCc1ccc(NS(C)(=O)=O)cc1 . Reported nuclear beta-catenin stimulation?
result: -0.7

Next:
query: Entry under review: Nc1nc(N)nc(-c2cc(Cl)ccc2Cl)n1 . Reported nuclear beta-catenin stimulation?
result: 0.6

###

assay: HCT116 colon cancer cell growth inhibition, primary screen, CellTiter-Glo luminescence, NPC library (AID 1117342); settings: at 20 µM (top of the series)
Recorded inhibition of viability, one value per entry.
All answers are understood in %, so give the number only.

query: Entry under review: CCCCC(CC)CN=C(N)NC(N)=NCCCCCCN=C(N)NC(N)=NCC(CC)CCCC (stereo not drawn) . Reported inhibition of viability?
result: 99.6

Next:
query: Entry under review: CN1CCC(=C2c3ccccc3C=Cc3ccccc32)CC1 . Reported inhibition of viability?
result: 39

query: Entry under review: NCCCC(=O)O . Reported inhibition of viability?
result: 1.3

query: Entry under review: CC(Cc1cccc(C(F)(F)F)c1)NCCOC(=O)c1ccccc1 (stereo not drawn) . Reported inhibition of viability?
result: 18.1

###

assay: NPC library primary testing for decreased DLD-1 cell viability via CellTiter-Glo (AID 1117346); settings: DLD-1 viability, CellTiter-Glo luminescence; at 20 µM (top of the series)
Recorded viability decrease (inhibition), one value per entry.
All answers are understood in %, so give the number only.

query: Entry under review: CCC(=O)O[C@]1(C(=O)SCF)[C@H](C)C[C@H]2[C@@H]3C[C@H](F)C4=CC(=O)C=C[C@]4(C)[C@@]3(F)[C@@H](O)C[C@@]21C . Reported viability decrease (inhibition)?
result: -7.2

Next:
query: Entry under review: O=c1oc2c(O)c(O)cc3c(=O)oc4c(O)c(O)cc1c4c23 . Reported viability decrease (inhibition)?
result: 30.7

query: Entry under review: Cc1cc2c(C(C)C)c(O)c(O)c(C=O)c2c(O)c1-c1c(C)cc2c(C(C)C)c(O)c(O)c(C=O)c2c1O . Reported viability decrease (inhibition)?
result: 64.1

query: Entry under review: Nc1ccc(S(=O)(=O)Nc2ccnn2-c2ccccc2)cc1 . Reported viability decrease (inhibition)?
result: -3.95

query: Entry under review: O=C(O)c1ccccc1O . Reported viability decrease (inhibition)?
result: -1.7

query: Entry under review: CCC(=O)O[C@H]1[C@H](O[C@@H]2[C@@H](C)[C@H](O[C@H]3C[C@@](C)(OC)[C@@H](O)[C@H](C)O3)[C@@H](C)C(=O)O[C@H](CC)[C@@](C)(O)[C@H](O)[C@@H](C)C(=O)[C@H](C)C[C@@]2(C)O)O[C@H](C)C[C@@H]1N(C)C . Reported viability decrease (inhibition)?
result: -12.4
